system: C. albicans (ATCC 90028); experiment: In vitro anticandidal activity, broth dilution; format: cell-based; details: Candida albicans, ATCC90028, 24 h, read-out: IC50 ± S.D, C. albicans
Experimental readout: IC50 (µg/mL)

Please review the entries below; each comes with its answer.
> print(dat)
                                   molecule          target.or.system  recorded.number
1  CCOC(=O)c1nc2ccccc2c(=O)n1Cc1cn(-c2ccccc2F)nn1  C. albicans (ATCC 90028)              110
2  CCOC(=O)c1nc2ccccc2c(=O)n1Cc1cn(-c2cccc([N+](=O)[O-])c2)nn1  C. albicans (ATCC 90028)              143

1. CCOC(=O)c1nc2ccccc2c(=O)n1Cc1cn(-c2ccc(Cl)cc2)nn1
2. O=C(O)c1nc2ccccc2c(=O)n1Cc1cn(-c2ccccc2[N+](=O)[O-])nn1
3. OC(Cn1cncn1)(Cn1cncn1)c1ccc(F)cc1F [FLC, fluconazole, reference compound]
4. Cc1cccc(-n2cc(Cn3c(C(=O)O)nc4ccccc4c3=O)nn2)c1
// query Ascending sort, IC50. Put the labels in the requested order and list them out.
// result 3, 4, 1, 2
(3: 15.6 µg/mL, 4: 133 µg/mL, 1: 216 µg/mL, 2: 701 µg/mL)

1. Cc1ccc(-n2cc(Cn3c(C(=O)O)nc4ccccc4c3=O)nn2)cc1
2. O=C(O)c1nc2ccccc2c(=O)n1Cc1cn(-c2cccc([N+](=O)[O-])c2)nn1
// query // compare: 1 vs 2 , metric IC50, want the smaller // respond with label for picked entry
// result 1

====

system: C. albicans (ATCC 90028); experiment: In vitro anticandidal activity, broth dilution; format: cell-based; settings: Candida albicans, ATCC90028, 24 h, read-out: IC50 ± S.D, C. albicans
Experimental readout: IC50 (µg/mL)

Please review the entries below; each comes with its answer.
> print(dat)
                           smiles.structure  unit.name  recorded.number
1  CCOC(=O)c1nc2ccccc2c(=O)n1Cc1cn(-c2ccccc2C)nn1      µg/mL              297
2  CCOC(=O)c1nc2ccccc2c(=O)n1Cc1cn(-c2ccccc2[N+](=O)[O-])nn1      µg/mL              269

I. CCOC(=O)c1nc2ccccc2c(=O)n1Cc1cn(-c2ccccc2)nn1
II. O=C(O)c1nc2ccccc2c(=O)n1Cc1cn(-c2ccc([N+](=O)[O-])cc2)nn1
// query // compare: I vs II , metric IC50, want the smaller // respond with label for picked entry
// result I

====

system: C. albicans (ATCC 90028); assay: In vitro anticandidal activity, broth dilution; format: cell-based; conditions: Candida albicans, ATCC90028, 24 h, read-out: IC50 ± S.D, C. albicans
Experimental readout: IC50 (µg/mL)

> print(dat)
                           smiles.structure  experimental.readout  unit.name  recorded.number
1  O=C(O)c1nc2ccccc2c(=O)n1Cc1cn(-c2ccc(Cl)cc2)nn1                  IC50      µg/mL              221
2  CCOC(=O)c1nc2ccccc2c(=O)n1Cc1cn(-c2ccc(C)cc2)nn1                  IC50      µg/mL             14.6
3  CCOC(=O)c1nc2ccccc2c(=O)n1Cc1cn(-c2ccc(OC)cc2)nn1                  IC50      µg/mL              394
4  O=C(O)c1nc2ccccc2c(=O)n1Cc1cn(-c2cccc(Cl)c2)nn1                  IC50      µg/mL              100
5  CCOC(=O)c1nc2ccccc2c(=O)n1Cc1cn(-c2cccc(Cl)c2)nn1                  IC50      µg/mL             65.6

I. O=C(O)c1ccc(-n2cc(Cn3c(C(=O)O)nc4ccccc4c3=O)nn2)cc1
II. COc1ccccc1-n1cc(Cn2c(C(=O)O)nc3ccccc3c2=O)nn1
III. O=C(O)c1nc2ccccc2c(=O)n1Cc1cn(-c2cccc(F)c2)nn1
IV. CCOC(=O)c1nc2ccccc2c(=O)n1Cc1cn(-c2cccc(C)c2)nn1
// query Order field: IC50 | Direction: descending (largest first) Put the labels in the requested order and list them out.
// result I, IV, III, II
(I: 916 µg/mL, IV: 353 µg/mL, III: 135 µg/mL, II: 48.2 µg/mL)

Every entry's value here was drawn from paper PMC9090800.
